Would you kindly list Luciferase Assay Z-score (full-length luciferase counter-screen) for each of these compounds?
molecular target: full-length P. pyralis luciferase (Photinus pyralis, UniProt P08659, K549A/L550V/N119G/N50D/S548I); type: cell-based; details: CC_NCI screening; normalized to on-plate 0.3% DMSO controls
Sequence (P08659 whole entry N50D/N119G/S548I/K549A/L550V, looked up): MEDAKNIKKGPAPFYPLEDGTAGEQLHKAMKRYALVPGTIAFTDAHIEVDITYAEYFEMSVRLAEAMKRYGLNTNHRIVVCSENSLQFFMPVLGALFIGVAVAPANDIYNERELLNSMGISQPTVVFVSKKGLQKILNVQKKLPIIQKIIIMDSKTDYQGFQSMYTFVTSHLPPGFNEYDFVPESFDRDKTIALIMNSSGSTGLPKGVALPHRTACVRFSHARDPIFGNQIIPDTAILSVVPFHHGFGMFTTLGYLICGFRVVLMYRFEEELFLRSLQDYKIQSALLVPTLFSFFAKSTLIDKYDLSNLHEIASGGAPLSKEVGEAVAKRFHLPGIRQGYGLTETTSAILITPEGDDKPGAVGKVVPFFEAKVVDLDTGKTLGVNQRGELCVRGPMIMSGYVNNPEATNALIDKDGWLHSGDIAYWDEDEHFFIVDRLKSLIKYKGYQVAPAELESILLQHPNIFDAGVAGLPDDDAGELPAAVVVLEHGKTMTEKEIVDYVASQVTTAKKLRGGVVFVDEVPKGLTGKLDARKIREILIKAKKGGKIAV
Give your answer as a number; write no unit.

Returns the measured Luciferase Assay Z-score (full-length luciferase counter-screen) for the input compound. Input: Nc1ncnc2c1c(-c1cnc3[nH]ccc3c1)nn2C1CCCC1 [PP121, reference compound] 3.11

Give the measured Luciferase Assay Z-score (full-length luciferase counter-screen) of CS(=O)(=O)OCCCCOS(C)(=O)=O . -0.26

Give its Luciferase Assay Z-score (full-length luciferase counter-screen) value. Item: CC(C)Cn1cnc2c(N)nc3ccccc3c21 0.60

Data request, read-out Luciferase Assay Z-score (full-length luciferase counter-screen), for N.N.O=C([O-])C1(C(=O)[O-])CCC1.[Pt+2] -0.46

Returns the measured Luciferase Assay Z-score (full-length luciferase counter-screen) for the input compound. Input: O=NN(CCCl)C(=O)NC1CCCCC1 1.20

GET /values?readout=Luciferase Assay Z-score (full-length luciferase counter-screen)&item= Nc1ncn([C@@H]2O[C@H](CO)[C@@H](O)[C@H]2O)c(=O)n1 -0.81

For the compound Nc1ccccc1NC(=O)c1ccc(CNc2nccc(-c3cccnc3)n2)cc1 , what Luciferase Assay Z-score (full-length luciferase counter-screen) is on record? -1.27

Please report the recorded Luciferase Assay Z-score (full-length luciferase counter-screen) for O=c1[nH]cc(F)c(=O)[nH]1 . 1.49

// lookup Luciferase Assay Z-score (full-length luciferase counter-screen) for Nc1ccccc1NC(=O)c1ccc(CNC(=O)OCc2cccnc2)cc1 0.92

Requested field: Luciferase Assay Z-score (full-length luciferase counter-screen). Item: Oc1c2ccccc2c2c3c(cccc13)N=N2 1.40
